# System: Saccharomyces cerevisiae
# Assay Text: Antimicrobial activity against Saccharomyces cerevisiae after 24 hr by agar diffusion method
# Type: functional
Calls of active or inactive are those of the source. The calls are words filed in the database; no cut-off is given here.
Reported Endpoint: inhibition zone (IZ)

INSERT INTO assay_data (molecule, reported_endpoint, result) VALUES
  ('C(=N/Nc1nc(-c2cc3ccccc3o2)cs1)/c1cn(-c2ccccc2)nc1-c1cccs1', 'inhibition zone (IZ)', 'inactive'),
  ('Clc1ccc(C2=NNC(c3cn(-c4ccccc4)nc3-c3cccs3)C2)cc1 (configuration not stated)', 'inhibition zone (IZ)', '31 mm'),
  ('O=c1oc2ccccc2cc1-c1csc(N/N=C\c2cn(-c3ccccc3)nc2-c2cccs2)n1', 'inhibition zone (IZ)', 'inactive'),
  ('N/C(=N/N=C\c1cn(-c2ccccc2)nc1-c1cccs1)SCC(=O)Nc1cccs1', 'inhibition zone (IZ)', 'inactive'),
  ('Cc1ccc(NC(=S)N2N=C(c3ccc(Cl)cc3)CC2c2cn(-c3ccccc3)nc2-c2cccs2)cc1 (configuration not stated)', 'inhibition zone (IZ)', 'inactive'),
  ('O=C(O)c1cn(C2CC2)c2cc(N3CCNCC3)c(F)cc2c1=O', 'inhibition zone (IZ)', 'inactive'),
  ('O=C1CS/C(=N\N=C/c2cn(-c3ccccc3)nc2-c2cccs2)N1', 'inhibition zone (IZ)', '29 mm');

###

# Test system: Rattus norvegicus
# Assay Text: Anti-inflammatory activity in Rattus norvegicus Sprague-Dawley (rat) assessed as inhibition of carrageenan-induced paw edema at 20 mg/kg, po administered 1 hr before carrageenan challenge and measured hourly for 4-hr post drug administration by mercury plethysmometer
# Type: functional, organism-based
# Parameters: dose 20 mg/kg
Activity calls are given as the source filed them. The rule behind the calls is not given here.
Reported Endpoint: inhibition

INSERT INTO results (smiles_string, measured_on, reported_endpoint, result) VALUES
  ('N/C(=N/N=C\c1cn(-c2ccccc2)nc1-c1cccs1)SCC(=O)Nc1cccs1', 'Rattus norvegicus', 'inhibition', 'Active'),
  ('O=C(O)Cc1ccccc1Nc1c(Cl)cccc1Cl', 'Rattus norvegicus', 'inhibition', 'Active'),
  ('O=c1oc2ccccc2cc1-c1csc(N/N=C\c2cn(-c3ccccc3)nc2-c2cccs2)n1', 'Rattus norvegicus', 'inhibition', 'Active'),
  ('Cc1nc(N/N=C\c2cn(-c3ccccc3)nc2-c2cccs2)sc1/N=N/c1ccc(F)cc1', 'Rattus norvegicus', 'inhibition', 'Active'),
  ('O=C(/C=C/c1cn(-c2ccccc2)nc1-c1cccs1)c1ccc(Cl)cc1', 'Rattus norvegicus', 'inhibition', 'Active');

###

# Tested on: Saccharomyces cerevisiae
# Assay Text: Antimicrobial activity against Saccharomyces cerevisiae after 24 hr by agar diffusion method
# Type: functional
Reported Endpoint: inhibition zone (IZ) (mm)

INSERT INTO assay_data (compound, reported_endpoint, numeric_result) VALUES
  ('Cc1nc(N/N=C\c2cn(-c3ccccc3)nc2-c2cccs2)sc1/N=N/c1ccc(F)cc1', 'inhibition zone (IZ)', 31),
  ('O=C(/C=C/c1cn(-c2ccccc2)nc1-c1cccs1)c1ccc(Cl)cc1', 'inhibition zone (IZ)', 29),
  ('NC(=S)N/N=C\c1cn(-c2ccccc2)nc1-c1cccs1', 'inhibition zone (IZ)', 30),
  ('C(=N/Nc1nc2nc3ccccc3nc2s1)/c1cn(-c2ccccc2)nc1-c1cccs1', 'inhibition zone (IZ)', 28),
  ('CC(=O)N1CCN(c2ccc(OCC3COC(Cn4ccnc4)(c4ccc(Cl)cc4Cl)O3)cc2)CC1 (racemic)', 'inhibition zone (IZ)', 23);
